I'd be grateful if you could share measured melting point for these entries.

Request: Value lookup for melting point; key = CC1(O)CCC(Nc2nccc(-n3nnc4ccccc43)n2)CC1 (stereo not drawn)
Response: 202.1 to 205.6 °C

Request: What value of measured melting point is listed for CN(c1nccc(-n2nnc3ccccc32)n1)[C@H]1CC[C@H](N(C)S(C)(=O)=O)CC1 ?
Response: 203.5 to 204 °C

Request: Query: melting point; subject: O=C1CCC(=O)N1[C@H]1CC[C@H](Nc2nccc(-n3nnc4ccccc43)n2)CC1
Response: 205 to 210 °C

Request: Sample COCC(=O)N[C@H]1CC[C@H](Nc2nccc(-n3nnc4ccccc43)n2)CC1 — what was its melting point?
Response: 233.5 to 235.4 °C

Request: Bench note: what melting point did O=C1CCC(Nc2nccc(-n3nnc4ccccc43)n2)CC1 show?
Response: 204.9 to 206.5 °C

Request: Please look up its melting point: OC[C@H]1CCCC[C@H]1Nc1nccc(-n2nnc3ccccc32)n1
Response: 206.1 to 207.8 °C
